// provenance: patent US20240350493A1

assay: phase I two-part drug-drug interaction study, plasma pharmacokinetics (Example 1); format: in vivo, human; settings: male, human, plasma, oral, 200 mg, 200 mg belumosudil BID alone; read-out: AUClast, geometric mean (geometric CV %)
outcome_measure: AUC(0-t)

(Q) For the molecule CC(C)NC(=O)COc1cccc(-c2nc(Nc3ccc4[nH]ncc4c3)c3ccccc3n2)c1 , give its reported AUC(0-t).
(A) 18900 ng·h/mL

====

experiment: relative bioavailability/food effect study, tablet and capsule (KD025-106); type: in vivo, human; conditions: male, human, plasma, oral, 200 mg, 200 mg tablet, fed; read-out: AUC0-24, geometric mean (geometric CV %)
outcome_measure: AUC(0-t) (ng·h/mL)
Field format: number, assumed ng·h/mL, no unit text.

(Q) For the compound CC(C)NC(=O)COc1cccc(-c2nc(Nc3ccc4[nH]ncc4c3)c3ccccc3n2)c1 [Belumosudil] , give its reported AUC(0-t).
(A) 9580
